# Tested on: HEK-293T
# test_protocol: Multiplex assay against HEK293T
# Type: toxicity, cell-based
# condition: human, 24 h, 10 µM, compound concentration 10 uM, replicate 1
Please enter class 1 where Population Healthy Nuclei (%) is greater than or equal to 40%, and class 0 where it is lower.

COc1cc2ncn(-c3cc(OCc4ccccc4C(F)(F)F)c(C(N)=O)s3)c2cc1OC [GW843682X]: class 1
Cc1ccc2c(c1)c1c(n2CCc2ccc(C)nc2)CCN(C)C1 [LATREPIRDINE]: class 0
CCCSc1nc(N[C@@H]2C[C@H]2c2ccc(F)c(F)c2)c2nnn([C@@H]3C[C@H](OCCO)[C@@H](O)[C@H]3O)c2n1: class 0

Is the recorded value of Population Healthy Nuclei (%) equal to or greater than 40% for this compound? `COC(=O)C1=C(C)NC(C)=C(C(=O)OCCCN2CCC(c3ccccc3)(c3ccccc3)CC2)[C@H]1c1cccc([N+](=O)[O-])c1`
class 0

Is the recorded value of Population Healthy Nuclei (%) equal to or greater than 40% for this compound? `CC(C)c1noc(N2CCC(COc3ccc(-c4ccc(S(C)(=O)=O)cc4)nc3)CC2)n1`
class 0

Is the recorded value of Population Healthy Nuclei (%) equal to or greater than 40% for this compound? `CC(C)OC(=O)N1CCC(Oc2ncnc3c2cnn3-c2ccc(S(C)(=O)=O)cc2F)CC1`
class 0

Is the recorded value of Population Healthy Nuclei (%) equal to or greater than 40% for this compound? `C=CC(=O)Nc1cccc(Oc2nc(Nc3ccc(N4CCN(C)CC4)cc3OC)ncc2Cl)c1`
class 1

---

# Tested on: HEK-293T
# test_protocol: Multiplex assay against HEK293T;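 for Population Tubulin-Different-Phenotype (%): share of the cells with healthy nuclei that show this phenotype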
# Type: toxicity, cell-based
# condition: human, 48 h, 10 µM, compound concentration 10 uM, replicate 1
Population Tubulin-Different-Phenotype (%) class ranges: lower band (below 60%), central band (60% to below 90%), upper band (90% or more)

CCCSc1nc(N[C@@H]2C[C@H]2c2ccc(F)c(F)c2)c2nnn([C@@H]3C[C@H](OCCO)[C@@H](O)[C@H]3O)c2n1: central band
Cc1cccc(CN2CCN(C(c3ccccc3)c3ccc(Cl)cc3)CC2)c1.Cl.Cl (configuration not stated): central band
O=c1cc(N2CCOCC2)oc2c(-c3cccc4c3sc3ccccc34)cccc12: upper band
CC(C)Oc1ccccc1C(=O)Nc1ccccc1C(=O)Nc1cccc(S(=O)(=O)C(F)(F)F)c1: lower band

Consider `CCc1ccc(OCc2ccccc2C(=O)Nc2ccc3nc(C)cc(N)c3c2)cc1.Cl` . To which Population Tubulin-Different-Phenotype (%) class does it belong?
lower band

Consider `CCOC(=O)Nc1cc(-c2ccc(C)c(NS(C)(=O)=O)c2)nn2c(C)nnc12` . To which Population Tubulin-Different-Phenotype (%) class does it belong?
lower band

Consider `C[C@]12CC[C@@H]3c4ccc(O)cc4CC[C@H]3[C@@H]1CC[C@@H]2O` . To which Population Tubulin-Different-Phenotype (%) class does it belong?
lower band

---

# Tested on: U2OS
# test_protocol: Multiplex assay against U2OS
# Type: toxicity, cell-based
# condition: human, 12 h, 1 µM, compound concentration 1 uM, replicate 1
attribute_measured: Population Membrane Permeable-Phenotype (%)
Mention the unit after the number when you answer.

COc1cc(Nc2nccc(-c3cnn4nc(OC)ccc34)n2)cc(C(F)(F)F)c1: 6%
C=CC(=O)Nc1ccc2[nH]c(=O)n(C3CCN(Cc4ccc(-c5nc6cc[nH]c(=O)c6cc5-c5ccccc5)cc4)CC3)c2c1: 12%

Kindly give each listed record's Population Membrane Permeable-Phenotype (%).
1. COc1ccccc1CN[C@H]1C2CCN(CC2)[C@H]1C(c1ccccc1)c1ccccc1
2. CC(C)c1noc(N2CCC(COc3ccc(-c4ccc(S(C)(=O)=O)cc4)nc3)CC2)n1
3. C=CC(=O)Nc1cccc(Oc2nc(Nc3ccc(N4CCN(C)CC4)cc3OC)ncc2Cl)c1
4. CNC(=O)Nc1ccc(-c2nc(N3CC4CCC(C3)O4)c3cnn(C4CCC5(CC4)OCCO5)c3n2)cc1

8%
5%
17%
5%

Reference for the values: ChEMBL document CHEMBL4689842
